# measured.on: T1, human GPRC5D (human, UniProt Q9NZD1 1-345)
# T1 construct: Full length, on stably transfected cells (HEK293-hGPRC5D, CHO-hGPRC5D); Also used here for the endogenous GPRC5D of the GPRC5D+ myeloma lines MM.1R, MM.1S and NCI-H929; also called hGPRC5D; G-protein-coupled receptor family C group 5 member D
# run.description: flow cytometry on CHO-hGPRC5D cells
measurement.type: binding result

1. anti-GPRC5D chimeric antibody 1C1 (antibody, V domains shown) VH: QAYLQQSGAELVRSGASVKMSCKASGYTFTSYNMHWVKQTPGQGLEWIGYIYPGNGGTNYNQKFKAKATLTADTSSSTAYMQISSLTSEDSAVYFCARGYGYRYWYFDVWGAGTTVTVSS VL: NIVLTQSPAIMSASPGEKVTMTCSASSSVRFMHWYQQKSGTSPKRWIYDTSKVASGVPARFSGSGSGTSYSLTIRSMEAEDAATYYCQQWSSNPLTFGAGTKLELK :: binds
2. anti-GPRC5D chimeric antibody 19E2 (antibody, V domains shown) VH: EVQLQQSGPELVKPGASVKMSCKASEYTFTNYVMYWVKQKPGQGLEWIGYINPYNDGTKYNEKFKGKATLTSDKSSSTAYMELSSLTSEDSAVYYCVRGGMLTTRSLFAYWGQGTLVTVSA VL: DIQMTQSPSSLSASLGERVSLTCRASQRISGYLSWLQQKPDGTIKRLIYAASTLDSGVPKRFSGSRSGSDYSLTISSLESEDFADYYCLQYANYPPTFGGGTKLEIK :: binds
3. anti-GPRC5D chimeric antibody 14D1 (antibody, V domains shown) VH: EVQLQQSGPDLVKPGASVKMSCKASGYKFTSYVMYWVKQKTGQGLEWIGYINPYNDGTKYNEKFKGKATLTSDKSSSTAYMEFSSLTSEDSAVYYCVRGGMLTTRSLFAYWGQGTLVTVSA VL: DIQMTQSPSSLSASLGERVSLTCRASQEISGYFSWLQQKPDGTIKRLIYAASTLDSGVPKRFSGSRSGSDYSLTISSLESEDFADYYCLQYASYPPTFGGGTKLEIK :: binds
